study.system: NaV1.6 (Homo sapiens (Human), UniProt Q9UQD0)
Sequence (Q9UQD0 whole entry): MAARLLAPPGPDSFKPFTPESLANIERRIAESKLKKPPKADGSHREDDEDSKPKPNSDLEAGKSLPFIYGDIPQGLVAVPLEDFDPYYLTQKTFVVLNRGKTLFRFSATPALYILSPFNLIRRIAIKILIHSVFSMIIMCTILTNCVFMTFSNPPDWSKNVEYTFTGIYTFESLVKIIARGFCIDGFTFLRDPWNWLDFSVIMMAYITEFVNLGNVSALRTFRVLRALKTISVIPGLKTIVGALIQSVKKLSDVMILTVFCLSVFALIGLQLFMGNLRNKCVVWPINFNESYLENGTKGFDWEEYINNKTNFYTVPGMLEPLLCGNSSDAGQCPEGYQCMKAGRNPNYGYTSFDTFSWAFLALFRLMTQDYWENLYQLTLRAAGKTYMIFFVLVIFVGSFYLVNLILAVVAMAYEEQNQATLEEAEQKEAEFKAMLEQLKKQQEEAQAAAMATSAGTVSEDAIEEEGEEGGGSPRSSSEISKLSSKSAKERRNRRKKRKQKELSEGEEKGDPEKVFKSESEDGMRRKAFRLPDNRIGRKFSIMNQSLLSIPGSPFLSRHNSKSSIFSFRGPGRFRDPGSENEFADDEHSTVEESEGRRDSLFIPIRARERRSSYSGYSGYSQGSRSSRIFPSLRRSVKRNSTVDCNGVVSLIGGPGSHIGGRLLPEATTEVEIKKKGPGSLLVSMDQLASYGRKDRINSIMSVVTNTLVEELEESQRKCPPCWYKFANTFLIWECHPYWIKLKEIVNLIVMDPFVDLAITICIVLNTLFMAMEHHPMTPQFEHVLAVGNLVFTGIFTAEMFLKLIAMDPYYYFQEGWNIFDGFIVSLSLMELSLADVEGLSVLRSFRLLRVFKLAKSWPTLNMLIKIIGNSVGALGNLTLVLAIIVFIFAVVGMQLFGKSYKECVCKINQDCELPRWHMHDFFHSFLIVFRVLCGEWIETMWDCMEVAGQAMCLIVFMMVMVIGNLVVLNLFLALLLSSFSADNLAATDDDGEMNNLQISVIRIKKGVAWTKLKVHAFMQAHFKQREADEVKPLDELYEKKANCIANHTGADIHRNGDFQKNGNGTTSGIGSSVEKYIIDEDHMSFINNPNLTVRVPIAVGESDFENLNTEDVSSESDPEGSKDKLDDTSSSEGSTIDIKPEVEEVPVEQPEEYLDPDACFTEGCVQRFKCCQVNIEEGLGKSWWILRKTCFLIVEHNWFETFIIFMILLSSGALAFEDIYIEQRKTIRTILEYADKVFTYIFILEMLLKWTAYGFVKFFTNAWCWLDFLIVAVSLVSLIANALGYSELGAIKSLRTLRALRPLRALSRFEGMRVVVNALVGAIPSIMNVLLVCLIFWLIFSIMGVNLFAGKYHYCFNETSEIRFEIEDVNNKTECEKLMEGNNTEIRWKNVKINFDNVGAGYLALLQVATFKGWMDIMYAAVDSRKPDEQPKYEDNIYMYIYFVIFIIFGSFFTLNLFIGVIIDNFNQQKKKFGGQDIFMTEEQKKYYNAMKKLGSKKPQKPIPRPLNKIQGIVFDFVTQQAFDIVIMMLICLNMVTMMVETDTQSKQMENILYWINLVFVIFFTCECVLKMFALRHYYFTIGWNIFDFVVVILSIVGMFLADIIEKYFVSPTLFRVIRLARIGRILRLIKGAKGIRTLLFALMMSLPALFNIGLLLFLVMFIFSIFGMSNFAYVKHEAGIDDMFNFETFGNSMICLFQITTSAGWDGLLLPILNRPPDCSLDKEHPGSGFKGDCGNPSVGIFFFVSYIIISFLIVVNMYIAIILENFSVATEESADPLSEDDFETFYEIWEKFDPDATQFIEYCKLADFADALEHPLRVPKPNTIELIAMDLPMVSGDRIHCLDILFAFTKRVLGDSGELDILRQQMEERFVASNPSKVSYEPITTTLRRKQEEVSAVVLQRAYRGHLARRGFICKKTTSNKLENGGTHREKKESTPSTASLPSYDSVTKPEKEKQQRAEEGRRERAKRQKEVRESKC
experiment.notes: Electrophysiological Assay (EP), patch voltage clamp, NaV1.6;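 further: sodium current recorded at ambient temperature, channels held inactivated then briefly repolarized to −150 mV for 20 ms before a test pulse, control currents in 0.5% DMSO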
Assay type: cell-based
run.conditions: HEK-293 cells, whole-cell patch clamp
Items are presented alongside their recorded IC50.
Field: numeric (nM). Do not append units.

Measured IC50 of O=S(=O)(Nc1ccccn1)c1c(F)cc(NCc2c(F)cccc2CN2CCC2)cc1F [Example 328] : 1040

Measured IC50 of C[C@H](Nc1cc(F)c(S(=O)(=O)Nc2nccs2)cc1Cl)C1CCCCC1 [Example 42] : 305

Measured IC50 of O=S(=O)(Nc1nccs1)c1cc(Cl)c(NC2(c3ccc(F)cc3)CC2)cc1F [Example 44] : 130

Measured IC50 of Cc1c(NCc2c(F)cccc2CN2CC(F)C2)ccc(S(=O)(=O)Nc2cscn2)c1F [Example 130] : 100

Measured IC50 of C[C@H](Nc1cc(F)c(S(=O)(=O)Nc2nccs2)cc1Cl)c1cc(F)ccc1F [Example 268] : 10

Measured IC50 of O=S(=O)(Nc1cscn1)c1cc(Cl)c(NC2(c3cc(F)ccc3F)CC2)cc1F [Example 225] : 742

Measured IC50 of Cc1cc(S(=O)(=O)Nc2cscn2)c(F)cc1NCc1c(F)cccc1CN1CC(F)C1 [Example 137] : 353

Measured IC50 of C[C@H](Nc1cc(F)c(S(=O)(=O)Nc2ncco2)cc1Cl)c1cc(F)ccc1F [Example 287] : 470

Measured IC50 of O=S(=O)(Nc1ccsn1)c1c(F)cc(NCc2c(F)cccc2CN2CCC2)cc1F [Example 188, 2,2,2-trifluoroacetate] : 12
